SYSTEM NAME: T1, purified recombinant MHC II protein, allele DRB1*0301 (human)
T1 construct: bought from Benaroya Research Institute; also called MHC-II DR molecule
METHOD SUMMARY: MHC II competition binding assay
Would you mind telling me the reported pIC50 of each entry?
Answers are plain numbers, as −log10 of the molar value.

These solved cases illustrate the format of a correct answer.
binder="DYVEAGQIIGWSGSTGY (synthetic mutated peptide of the lysostaphin catalytic domain; also called K95E) [cluster 4 peptide with Lys95Glu]" measured_number=5.72
binder="DYVKAGQIIGWSGSTGY [cluster 4 wild-type (C4WT) epitope peptide]" measured_number=4.50

We now examine a further binder.
Incoming: For the binder DHVEAGQIIGWSGSTGY (synthetic mutated peptide of the lysostaphin catalytic domain; also called 93_95) [cluster 4 peptide with Tyr93His/Lys95Glu] , report pIC50.
Outgoing: 3.96
